# tested target: T1, KGF (hKGF) (Homo sapiens, UniProt P21781 P21781:32-194)
# T1 sequence: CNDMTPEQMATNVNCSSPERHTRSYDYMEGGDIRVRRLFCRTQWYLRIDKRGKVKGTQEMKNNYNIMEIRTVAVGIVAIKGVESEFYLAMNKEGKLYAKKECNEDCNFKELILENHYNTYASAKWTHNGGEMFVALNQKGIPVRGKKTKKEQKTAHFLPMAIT
# assay procedure: filter; DPBS, 37 C
# particulars: tags: Upstate Biotechnology; label: 32P; dumbbell (predicted)
Could you please report measured pKd for the items listed next?
Numbers only, as −log10 of the molar value.

2N (ssRNA, 2'-NH2 pyrimidines) RNA: GGGAGGACGAUGCGGGCGGGAAGGUCCGAAGACCGGCGAAAGGAACGAGAUUGCCCAGACGACUCGCCCGA    9.11

Now turn to the next binder.
For the binder 54N (ssRNA, 2'-NH2 pyrimidines) RNA: GGGAGGACGAUGCGGAGAACCAACAGAGCCCCCUGGUGGUGGGGGAAGGAUUCUCAGACGACUCGCCCGA , what pKd is on record? 8.27
